- study system: T1, human PDGF-BB (platelet derived growth factor B homodimer) (human, UniProt P01127)
- T1 construct: Platelet derived growth factor B, human, homodimer, bought from PeproTech; the printed catalogue number may stand for 100-14B; source: bought: PeproTech, Catalog 100-148
- T1 sequence (P01127 82-190): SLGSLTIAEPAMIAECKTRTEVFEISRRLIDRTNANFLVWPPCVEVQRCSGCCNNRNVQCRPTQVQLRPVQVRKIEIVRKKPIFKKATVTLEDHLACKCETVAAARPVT
- test description: SPR; Biacore T200, full kinetics; antibody captured by anti-human IgG on a CM5 chip; human PDGF-BB at 20, 10, 5, 2.5 and 1.25 nM, 50 s injection; HBS-EP+ N; 25 C; 1:1 Langmuir fit
- condition description: both partners purified
Overview of reported Kd across a group of binders:
measured property: Kd (nM)

{"binder": "R2-020 (antibody, V domains shown, as the VH of m20 (R2-001_HC); as the VL of m20 (R2-001_LC) with D51N (Kabat); only the variable regions are written; source: HEK293, transient, purified from conditioned medium (protein A, TMAE, HIC)) VH: EVQLLQSGGGLVKPGGSLRLSCAASGFTFSSYAMSWVRQAPGKGLEWVSYISDDGSLKYYADSVKGRFTISRDNSKNTLYLQMNSLRAEDTAVYYCARHPYWYGGQLDLWGQGTLVTVSS VL: SYVLTQPPSVSVAPGKTARITCSGDSLGSYFVHWYQQKPGQSPVLVIYDNSKRPSGIPERFSGSNSGNTATLTISGTQAMDEADYYCSAFTHNSDVFGGGTKLTVL", "measurement units": "nM", "value": 0.299}
{"binder": "R2-006 (antibody, V domains shown, as the VH of m20 (R2-001_HC); as the VL of m20 (R2-001_LC) with S52K (Kabat); only the variable regions are written; source: HEK293, transient, purified from conditioned medium (protein A, TMAE, HIC)) VH: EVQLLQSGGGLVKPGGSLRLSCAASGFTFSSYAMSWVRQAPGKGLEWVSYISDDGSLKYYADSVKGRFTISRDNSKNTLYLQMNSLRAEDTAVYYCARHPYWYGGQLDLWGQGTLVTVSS VL: SYVLTQPPSVSVAPGKTARITCSGDSLGSYFVHWYQQKPGQSPVLVIYDDKKRPSGIPERFSGSNSGNTATLTISGTQAMDEADYYCSAFTHNSDVFGGGTKLTVL", "measurement units": "nM", "value": 0.0888}
{"binder": "R2-001 (antibody, V domains shown, R2-001_HC: as the VH of m17 (R1-016), on which R2-001 was built; R2-001_LC: as the VL of m17 (R1-016) with FW1 changed to that of IGLV3-21*01; only the variable regions are written; also called round 2 parental R2-001; R2-001_HC with R2-001_LC; source: HEK293, transient, purified from conditioned medium (protein A, TMAE, HIC)) VH: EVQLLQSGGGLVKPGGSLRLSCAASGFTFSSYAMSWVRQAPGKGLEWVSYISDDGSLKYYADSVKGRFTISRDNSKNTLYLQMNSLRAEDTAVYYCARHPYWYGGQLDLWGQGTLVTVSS VL: SYVLTQPPSVSVAPGKTARITCSGDSLGSYFVHWYQQKPGQSPVLVIYDDSKRPSGIPERFSGSNSGNTATLTISGTQAMDEADYYCSAFTHNSDVFGGGTKLTVL", "measurement units": "nM", "value": 0.102}
